pIC50: −log10 of the molar value.
Lab note: pIC50 readings collected with CSK(h) (Homo sapiens (Human), UniProt P41240) for the following compounds.
Sequence (P41240 whole entry): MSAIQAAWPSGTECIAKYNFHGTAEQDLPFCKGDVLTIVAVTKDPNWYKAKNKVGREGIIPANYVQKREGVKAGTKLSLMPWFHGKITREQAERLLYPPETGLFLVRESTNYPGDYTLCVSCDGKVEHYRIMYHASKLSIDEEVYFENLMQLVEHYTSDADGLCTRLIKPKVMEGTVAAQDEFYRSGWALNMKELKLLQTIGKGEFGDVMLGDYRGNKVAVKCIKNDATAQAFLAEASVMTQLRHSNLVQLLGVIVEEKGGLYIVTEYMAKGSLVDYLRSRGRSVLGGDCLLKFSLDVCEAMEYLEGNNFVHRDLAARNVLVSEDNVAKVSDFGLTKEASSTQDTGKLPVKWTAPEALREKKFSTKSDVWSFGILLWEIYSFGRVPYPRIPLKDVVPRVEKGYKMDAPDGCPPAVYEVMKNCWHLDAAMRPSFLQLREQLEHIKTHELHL

- compound: "CCN(CC)CCOc1ccc(Nc2cc3c(cn2)cc(-c2ccccc2)c(=O)n3CC)nc1 [Compound 1]"
  pIC50: "6.00 to 6.30"

Task item: Fill in: pIC50 of CCn1c(=O)c(-c2ccccc2)cc2cnc(Nc3ncc(CCN(C)C)s3)cc21 [Compound 2] is ___
Reply: < 6.00

====

- target.entity: c-RAF(h) (Homo sapiens (Human), UniProt P04049, Y340D/Y341D)
- Sequence (P04049 306-648 Y340D/Y341D limits assumed): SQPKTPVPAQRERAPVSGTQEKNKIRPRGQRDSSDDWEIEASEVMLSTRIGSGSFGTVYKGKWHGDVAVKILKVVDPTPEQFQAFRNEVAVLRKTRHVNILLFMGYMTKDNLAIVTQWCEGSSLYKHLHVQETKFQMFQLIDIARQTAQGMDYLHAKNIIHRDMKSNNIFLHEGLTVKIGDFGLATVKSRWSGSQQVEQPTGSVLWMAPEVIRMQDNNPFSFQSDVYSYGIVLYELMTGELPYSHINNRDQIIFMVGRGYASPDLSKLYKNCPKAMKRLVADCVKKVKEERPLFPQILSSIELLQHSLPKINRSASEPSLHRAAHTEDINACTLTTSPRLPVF
- test.details: IC50 profiler radiometric kinase assay (Millipore)
- conditions: TKL
Parameter IC50: see the listing below.

- test.smiles: "CCn1c(=O)c(-c2ccccc2)cc2cnc(Nc3ncc(CCN(C)C)s3)cc21"
  target.entity: "c-RAF(h) (Homo sapiens (Human), UniProt P04049, Y340D/Y341D)"
  IC50: "100 to 500 nM"

Task item: Give its IC50 value. Item: CCN(CC)CCOc1ccc(Nc2cc3c(cn2)cc(-c2ccccc2)c(=O)n3CC)nc1
Reply: 100 to 500 nM

====

- target.entity: JAK2(h) (Homo sapiens (Human), UniProt O60674)
- Sequence (O60674 whole entry): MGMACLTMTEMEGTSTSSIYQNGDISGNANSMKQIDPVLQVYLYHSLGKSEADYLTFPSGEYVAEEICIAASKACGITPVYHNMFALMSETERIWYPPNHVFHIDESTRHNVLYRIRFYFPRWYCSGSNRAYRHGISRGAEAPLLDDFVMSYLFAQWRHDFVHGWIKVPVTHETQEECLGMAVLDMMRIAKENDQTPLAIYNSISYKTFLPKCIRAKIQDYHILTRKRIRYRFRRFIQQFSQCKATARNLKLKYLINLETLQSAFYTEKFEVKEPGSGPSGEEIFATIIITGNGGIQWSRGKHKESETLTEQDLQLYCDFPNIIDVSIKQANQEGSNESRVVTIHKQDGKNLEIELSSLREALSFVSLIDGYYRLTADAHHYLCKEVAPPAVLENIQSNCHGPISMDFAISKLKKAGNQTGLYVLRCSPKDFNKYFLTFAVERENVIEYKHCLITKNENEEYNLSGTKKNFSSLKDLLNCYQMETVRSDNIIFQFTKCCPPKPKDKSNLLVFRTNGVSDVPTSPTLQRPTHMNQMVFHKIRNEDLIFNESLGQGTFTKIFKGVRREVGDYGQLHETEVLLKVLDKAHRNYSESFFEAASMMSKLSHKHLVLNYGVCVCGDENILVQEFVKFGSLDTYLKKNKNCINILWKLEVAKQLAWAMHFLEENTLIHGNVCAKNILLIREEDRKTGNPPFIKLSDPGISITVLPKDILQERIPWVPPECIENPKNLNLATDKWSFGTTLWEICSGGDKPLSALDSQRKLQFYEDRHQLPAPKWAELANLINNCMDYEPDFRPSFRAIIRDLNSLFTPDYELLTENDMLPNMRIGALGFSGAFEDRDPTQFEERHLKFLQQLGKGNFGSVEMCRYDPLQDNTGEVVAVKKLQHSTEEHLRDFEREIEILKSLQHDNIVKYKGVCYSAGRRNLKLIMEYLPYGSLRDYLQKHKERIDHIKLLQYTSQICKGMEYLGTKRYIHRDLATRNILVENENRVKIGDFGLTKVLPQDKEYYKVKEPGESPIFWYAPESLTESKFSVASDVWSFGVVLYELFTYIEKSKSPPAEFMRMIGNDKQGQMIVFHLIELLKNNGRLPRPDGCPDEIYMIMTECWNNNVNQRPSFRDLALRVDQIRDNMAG
pIC50: −log10 of the molar value.
result.type: pIC50

Task item: Would you kindly share the measured pIC50 for CCN(CC)CCOc1ccc(Nc2cc3c(cn2)cc(-c2ccccc2)c(=O)n3CC)nc1 ?
Reply: < 6.00

====

Parameter 'readout' = IC50; parameter 'system' = Abl(h) (Homo sapiens (Human), UniProt P00519).
Sequence (P00519 whole entry): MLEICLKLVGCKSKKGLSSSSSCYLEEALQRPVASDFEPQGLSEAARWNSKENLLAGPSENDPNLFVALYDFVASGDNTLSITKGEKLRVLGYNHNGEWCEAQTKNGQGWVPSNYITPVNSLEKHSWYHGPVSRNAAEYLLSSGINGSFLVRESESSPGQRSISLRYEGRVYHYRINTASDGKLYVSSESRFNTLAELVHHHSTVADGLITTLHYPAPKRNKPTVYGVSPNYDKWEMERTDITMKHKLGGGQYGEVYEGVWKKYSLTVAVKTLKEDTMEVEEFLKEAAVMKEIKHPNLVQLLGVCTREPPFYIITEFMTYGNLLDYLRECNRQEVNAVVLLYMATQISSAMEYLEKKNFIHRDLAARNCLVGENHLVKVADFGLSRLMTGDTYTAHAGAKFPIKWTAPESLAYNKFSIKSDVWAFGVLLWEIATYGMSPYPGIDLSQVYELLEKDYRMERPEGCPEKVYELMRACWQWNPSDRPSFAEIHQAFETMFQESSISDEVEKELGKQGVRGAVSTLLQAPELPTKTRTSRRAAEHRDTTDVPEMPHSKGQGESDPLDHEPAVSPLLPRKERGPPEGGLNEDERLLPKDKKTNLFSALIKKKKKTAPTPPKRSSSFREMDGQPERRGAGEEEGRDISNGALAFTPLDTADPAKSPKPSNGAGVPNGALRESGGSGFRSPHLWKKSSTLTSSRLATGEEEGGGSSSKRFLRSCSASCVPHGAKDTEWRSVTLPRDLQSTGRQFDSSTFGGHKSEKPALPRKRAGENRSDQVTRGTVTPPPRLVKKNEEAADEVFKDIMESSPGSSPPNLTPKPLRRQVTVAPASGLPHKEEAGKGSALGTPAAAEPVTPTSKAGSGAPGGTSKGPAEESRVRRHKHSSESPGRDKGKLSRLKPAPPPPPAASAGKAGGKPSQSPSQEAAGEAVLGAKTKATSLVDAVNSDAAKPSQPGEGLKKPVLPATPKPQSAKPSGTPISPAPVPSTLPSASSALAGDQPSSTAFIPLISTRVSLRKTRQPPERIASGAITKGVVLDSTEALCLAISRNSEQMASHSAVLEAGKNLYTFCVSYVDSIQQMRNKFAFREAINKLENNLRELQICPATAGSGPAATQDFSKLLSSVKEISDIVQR

- test.smiles: "CCN(CC)CCOc1ccc(Nc2cc3c(cn2)cc(-c2ccccc2)c(=O)n3CC)nc1"
  IC50: "< 10 nM"

Next molecule, please.
Task item: Given CCn1c(=O)c(-c2ccccc2)cc2cnc(Nc3ncc(CCN(C)C)s3)cc21 , state its recorded IC50.
Reply: 10 to 100 nM

====

Below are molecules with their pIC50 as measured on UniProt P36897.
Sequence (P36897 34-503): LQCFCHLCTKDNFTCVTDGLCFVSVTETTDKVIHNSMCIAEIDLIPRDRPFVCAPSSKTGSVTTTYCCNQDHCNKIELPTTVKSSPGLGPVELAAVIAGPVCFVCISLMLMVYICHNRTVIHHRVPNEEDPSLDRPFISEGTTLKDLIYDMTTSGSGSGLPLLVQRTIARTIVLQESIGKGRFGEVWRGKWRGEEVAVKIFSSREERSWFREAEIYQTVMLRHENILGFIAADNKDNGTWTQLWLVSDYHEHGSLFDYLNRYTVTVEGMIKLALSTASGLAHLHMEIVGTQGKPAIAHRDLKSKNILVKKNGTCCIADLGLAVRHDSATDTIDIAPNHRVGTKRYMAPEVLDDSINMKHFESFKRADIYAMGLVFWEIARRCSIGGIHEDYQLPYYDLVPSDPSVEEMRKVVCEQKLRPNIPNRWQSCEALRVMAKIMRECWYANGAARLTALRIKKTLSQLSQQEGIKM
pIC50: −log10 of the molar value.

- test.smiles: "CCN(CC)CCOc1ccc(Nc2cc3c(cn2)cc(-c2ccccc2)c(=O)n3CC)nc1"
  pIC50: "6.30 to 7.00"

Task item: I'm curious: which pIC50 was measured for CCn1c(=O)c(-c2ccccc2)cc2cnc(Nc3ncc(CCN(C)C)s3)cc21 tested on UniProt P36897?
Reply: 6.00 to 6.30

====

- target.entity: Src(1-530)(h) (Homo sapiens (Human), UniProt P12931)
- Sequence (P12931 whole entry, looked up): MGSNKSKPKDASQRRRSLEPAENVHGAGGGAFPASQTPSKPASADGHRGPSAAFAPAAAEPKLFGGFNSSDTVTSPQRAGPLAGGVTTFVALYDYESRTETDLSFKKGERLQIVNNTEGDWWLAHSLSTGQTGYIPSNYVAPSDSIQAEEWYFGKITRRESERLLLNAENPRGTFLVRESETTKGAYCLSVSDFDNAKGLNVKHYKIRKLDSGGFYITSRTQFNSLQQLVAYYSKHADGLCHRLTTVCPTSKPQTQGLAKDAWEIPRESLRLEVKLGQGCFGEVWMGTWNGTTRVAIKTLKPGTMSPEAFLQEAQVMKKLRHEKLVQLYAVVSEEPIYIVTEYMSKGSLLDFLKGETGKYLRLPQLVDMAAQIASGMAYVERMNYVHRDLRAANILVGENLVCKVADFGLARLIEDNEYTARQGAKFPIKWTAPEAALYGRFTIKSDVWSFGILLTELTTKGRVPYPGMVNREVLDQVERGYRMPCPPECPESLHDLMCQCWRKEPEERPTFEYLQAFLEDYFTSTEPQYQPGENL
result.type: IC50

Task item: Give IC50 (Src(1-530)(h) (Homo sapiens (Human), UniProt P12931)) of the following compound: CCN(CC)CCOc1ccc(Nc2cc3c(cn2)cc(-c2ccccc2)c(=O)n3CC)nc1
Reply: < 10 nM

====

Reported pIC50 values for a set of molecules
- target.entity: Lyn (Homo sapiens (Human), UniProt P07948)
- Sequence (P07948 whole entry): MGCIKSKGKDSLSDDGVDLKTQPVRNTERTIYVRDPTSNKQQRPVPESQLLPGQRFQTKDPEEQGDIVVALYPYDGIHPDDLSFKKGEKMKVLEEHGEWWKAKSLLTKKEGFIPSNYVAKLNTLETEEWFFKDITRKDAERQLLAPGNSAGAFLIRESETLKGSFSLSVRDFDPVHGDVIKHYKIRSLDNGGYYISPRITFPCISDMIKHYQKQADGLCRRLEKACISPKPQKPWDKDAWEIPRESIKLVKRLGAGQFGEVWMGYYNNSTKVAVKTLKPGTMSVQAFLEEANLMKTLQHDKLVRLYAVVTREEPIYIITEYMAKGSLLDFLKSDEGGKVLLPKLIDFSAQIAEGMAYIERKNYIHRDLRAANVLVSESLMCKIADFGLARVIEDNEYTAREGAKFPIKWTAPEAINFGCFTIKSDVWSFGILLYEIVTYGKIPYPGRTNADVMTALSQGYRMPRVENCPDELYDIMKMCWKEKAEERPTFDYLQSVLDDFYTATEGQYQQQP
- conditions: read-out: Lyn IC50
pIC50: −log10 of the molar value.

Here's what some known entries look like.
- molecule: "CCN(CC)CCOc1ccc(Nc2cc3c(cn2)cc(-c2c(Cl)cccc2OC)c(=O)n3CC)nc1 [Compound 108]"
  result: "> 7.00"
- molecule: "CCn1c(=O)c(-c2c(C)cc(F)cc2C)cc2cnc(Nc3ccc(N(C)C4CCN(C)CC4)cn3)cc21 [Compound 124]"
  result: "> 7.00"
- molecule: "CCN(CC)CCOc1ccc(Nc2cc3c(cn2)cc(C(C)C)c(=O)n3-c2ccccc2)nc1 [Compound 18]"
  result: "6.00 to 7.00"

Now let's try a different one.
Task item: Recorded pIC50 of CCN(CC)CCOc1ccc(Nc2cc3c(cn2)cc(C(C)C)c(=O)n3C(C)C)nc1 [Compound 34] , please.
Reply: > 7.00
